Test system: Reis
Test: herbicidal activity, Hydro Vorauflauf
Assay type: in vivo
Conditions: 4000 Gramm/Hektar
Procedure: The determination of herbicidal activity is performed according to standard procedure. Again the compounds listed on page 9 are tested.
Readout Type: pest or weed control at 4000 g/ha (%)

>>> reading("CC(C)N(C)CCCN1OCCC1=O")
30
>>> reading("CC1CON(CCCP(=O)(O)O)C1=O (centres unmarked)")
40
>>> reading("CC1CON(COCP(C)(=O)O)C1=O (centres unmarked)")
40
>>> reading("CP(=O)(O)CCCN1OCCCC1=O")
30
>>> reading("CN(C)CCCN1OCCCC1=O")
40

====

test system: Setaria viridis; assay: herbicidal activity, Erde Nachauflauf; format: in vivo; settings: 2000 Gramm/Hektar
Listed compounds paired with reported pest or weed control at 2000 g/ha
Readout Type: pest or weed control at 2000 g/ha

>>> reading("CC(C)N(C)CCCN1OCCC1=O")
"90%"
>>> reading("CP(=O)(O)CCCN1OCCCC1=O")
"90%"
>>> reading("CC1CON(COCP(C)(=O)O)C1=O (centres unmarked)")
"70%"
>>> reading("CN(C)CCCN1OCCCC1=O")
"70%"
>>> reading("CC1CON(CCCP(=O)(O)O)C1=O (centres unmarked)")
"95%"

====

test system: Zea mays; experiment: herbicidal activity, Erde Vorauflauf; type: in vivo; settings: 2000 Gramm/Hektar
Readout Type: plant injury at 2000 g/ha (%)

>>> reading("CN(C)CCCN1OCCCC1=O")
0
>>> reading("CC1CON(COCP(C)(=O)O)C1=O (centres unmarked)")
0
>>> reading("CC(C)N(C)CCCN1OCCC1=O")
30
>>> reading("CP(=O)(O)CCCN1OCCCC1=O")
30
>>> reading("CC1CON(CCCP(=O)(O)O)C1=O (centres unmarked)")
0

====

Listed molecules paired with reported pest or weed control at 2000 g/ha
test system: Amaranthus retroflexus; test: herbicidal activity, Erde Nachauflauf; assay type: in vivo; conditions: 2000 Gramm/Hektar
Readout Type: pest or weed control at 2000 g/ha

>>> reading("CC(C)N(C)CCCN1OCCC1=O")
"50%"
>>> reading("CN(C)CCCN1OCCCC1=O")
"70%"
>>> reading("CP(=O)(O)CCCN1OCCCC1=O")
"40%"
>>> reading("CC1CON(COCP(C)(=O)O)C1=O (centres unmarked)")
"60%"
>>> reading("CC1CON(CCCP(=O)(O)O)C1=O (centres unmarked)")
"30%"

====

target: DOXP reductoisomerase of Escherichia coli (UniProt P56139); assay: inhibition of recombinant DOXP reductoisomerase (NADPH oxidation); assay type: biochemical; settings: 1 mM DOXP, 0,3 mM NADPH, pH 7,5; read-out: IC50(nM) of DOXP reductoisomerase from Helicobacter pilori
Listed compounds paired with reported IC50
Readout Type: IC50 (nM)

>>> reading("O=C1CCON1CC(O)CP(=O)(O)O (centres unmarked) [Compound 2]")
110
>>> reading("CC1CON(COCP(C)(=O)O)C1=O (centres unmarked) [Compound 3]")
125
>>> reading("CN(C)CCCN1OCCCC1=O [Compound 6]")
130
>>> reading("CC(C)N(C)CCCN1OCCC1=O [Compound 7]")
18
>>> reading("CC1(C)CON(C(=O)CP(C)(=O)O)C1=O [Compound 1]")
22
>>> reading("CP(=O)(O)CCCN1OCCCC1=O [Compound 4]")
78
>>> reading("CC1CON(CCCP(=O)(O)O)C1=O (centres unmarked) [Compound 5]")
100
>>> reading("CN(C)CC(=O)CN1OCCC(C)(C)C1=O [Compound 8]")
24

====

system: Setaria viridis; assay: herbicidal activity, Erde Vorauflauf; assay type: in vivo; settings: 2000 Gramm/Hektar
Listed compounds paired with reported pest or weed control at 2000 g/ha
Readout Type: pest or weed control at 2000 g/ha (%)

>>> reading("CC(C)N(C)CCCN1OCCC1=O")
0
>>> reading("CN(C)CCCN1OCCCC1=O")
0
>>> reading("CP(=O)(O)CCCN1OCCCC1=O")
0
>>> reading("CC1CON(COCP(C)(=O)O)C1=O (centres unmarked)")
0
>>> reading("CC1CON(CCCP(=O)(O)O)C1=O (centres unmarked)")
0

====

test system: Zea mays; test: herbicidal activity, Erde Nachauflauf; assay type: in vivo; conditions: 2000 Gramm/Hektar
Listed molecules paired with reported plant injury at 2000 g/ha
Readout Type: plant injury at 2000 g/ha (%)

>>> reading("CC1CON(CCCP(=O)(O)O)C1=O (centres unmarked)")
80
>>> reading("CC(C)N(C)CCCN1OCCC1=O")
70
>>> reading("CN(C)CCCN1OCCCC1=O")
70
>>> reading("CP(=O)(O)CCCN1OCCCC1=O")
70
>>> reading("CC1CON(COCP(C)(=O)O)C1=O (centres unmarked)")
70

====

Listed compounds paired with reported pest or weed control at 4000 g/ha
test system: Solanum; assay: herbicidal activity, Hydro Vorauflauf; type: in vivo; conditions: 4000 Gramm/Hektar
Readout Type: pest or weed control at 4000 g/ha (%)

>>> reading("CC1CON(COCP(C)(=O)O)C1=O (centres unmarked)")
0
>>> reading("CP(=O)(O)CCCN1OCCCC1=O")
30
>>> reading("CC1CON(CCCP(=O)(O)O)C1=O (centres unmarked)")
0
>>> reading("CN(C)CCCN1OCCCC1=O")
0
>>> reading("CC(C)N(C)CCCN1OCCC1=O")
30
